Source of measurements: paper PMC2668958

// pIC50 lookup, one value per entry
Biological target: Glucocerebrosidase (GC) (Homo sapiens, UniProt P04062, R534H)
Sequence (P04062 40-536 R534H): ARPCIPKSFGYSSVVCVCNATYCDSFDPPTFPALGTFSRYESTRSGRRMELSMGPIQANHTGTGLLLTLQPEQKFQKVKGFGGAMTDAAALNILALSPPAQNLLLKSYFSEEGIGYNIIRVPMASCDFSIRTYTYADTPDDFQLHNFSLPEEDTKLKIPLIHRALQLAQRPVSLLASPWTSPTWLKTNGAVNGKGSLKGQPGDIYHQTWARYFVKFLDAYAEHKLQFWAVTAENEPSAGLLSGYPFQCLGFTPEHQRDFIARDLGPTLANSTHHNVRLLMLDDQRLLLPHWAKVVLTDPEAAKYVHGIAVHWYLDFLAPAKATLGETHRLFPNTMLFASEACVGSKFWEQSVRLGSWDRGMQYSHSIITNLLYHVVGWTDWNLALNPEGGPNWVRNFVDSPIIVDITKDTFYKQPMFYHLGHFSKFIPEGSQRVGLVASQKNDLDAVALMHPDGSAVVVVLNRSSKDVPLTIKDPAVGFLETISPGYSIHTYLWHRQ
Experiment: Res-β-Glc
Type: biochemical
pIC50: −log10 of the molar value.
ATTRIBUTE MEASURED: pIC50

[[record]]
molecule = "C[N+]1(C)CCN(c2ccccc2)CC1 [compound 6]"
attribute_measured = "pIC50"
quantitative_result = 5.17

[[record]]
molecule = "O=C(/C=C/c1ccc(O)cc1)c1ccc(O)cc1O [compound 2, Isoliquiritigenin]"
attribute_measured = "pIC50"
quantitative_result = 5.59

[[record]]
molecule = "O=c1c2ccccc2[se]n1-c1ccccc1 [compound 10, Ebselen]"
attribute_measured = "pIC50"
quantitative_result = 6.20

[[record]]
molecule = "CN[C@@H](C)[C@H](O)c1ccccc1 [compound 1, (-)-Ephedrine hemisulfate]"
attribute_measured = "pIC50"
quantitative_result = 6.10

[[record]]
molecule = "CC[N+](CC)(CC)CCOc1cccc(OCC[N+](CC)(CC)CC)c1OCC[N+](CC)(CC)CC [compound 3, Gallamine triethiodide]"
attribute_measured = "pIC50"
quantitative_result = 5.44


###

target: Glucocerebrosidase (GC) (Homo sapiens, UniProt P04062, R534H); assay: 4MU-β-Glc; assay type: biochemical; conditions: read-out: IC50 in the "blue" GC assay; known GC inhibitors; 800 μM 4MU-β-Glc, 1.9 nM enzyme
ATTRIBUTE MEASURED: IC50 (µM)

[[record]]
compound = "O[C@H]1[C@H](O)[C@@H](O)[C@@H]2O[C@@H]2[C@@H]1O [CBE, Conduritol β-epoxide]"
attribute_measured = "IC50"
scale_unit = "µM"
quantitative_result = 15.4


###

target: Glucocerebrosidase (GC) (Homo sapiens, UniProt P04062, R534H); assay: Res-β-Glc; format: biochemical; details: read-out: IC50 in the "red" GC assay; known GC inhibitors; 30 μM Res-β-Glc, 1.9 nM enzyme
ATTRIBUTE MEASURED: IC50

[[record]]
compound = "O[C@H]1[C@H](O)[C@@H](O)[C@@H]2O[C@@H]2[C@@H]1O [CBE, Conduritol β-epoxide]"
result = "13 µM"

